Origin of measurements: patent US20200247815A1

- System under test: UniProt Q12809
- Sequence (Q12809 whole entry): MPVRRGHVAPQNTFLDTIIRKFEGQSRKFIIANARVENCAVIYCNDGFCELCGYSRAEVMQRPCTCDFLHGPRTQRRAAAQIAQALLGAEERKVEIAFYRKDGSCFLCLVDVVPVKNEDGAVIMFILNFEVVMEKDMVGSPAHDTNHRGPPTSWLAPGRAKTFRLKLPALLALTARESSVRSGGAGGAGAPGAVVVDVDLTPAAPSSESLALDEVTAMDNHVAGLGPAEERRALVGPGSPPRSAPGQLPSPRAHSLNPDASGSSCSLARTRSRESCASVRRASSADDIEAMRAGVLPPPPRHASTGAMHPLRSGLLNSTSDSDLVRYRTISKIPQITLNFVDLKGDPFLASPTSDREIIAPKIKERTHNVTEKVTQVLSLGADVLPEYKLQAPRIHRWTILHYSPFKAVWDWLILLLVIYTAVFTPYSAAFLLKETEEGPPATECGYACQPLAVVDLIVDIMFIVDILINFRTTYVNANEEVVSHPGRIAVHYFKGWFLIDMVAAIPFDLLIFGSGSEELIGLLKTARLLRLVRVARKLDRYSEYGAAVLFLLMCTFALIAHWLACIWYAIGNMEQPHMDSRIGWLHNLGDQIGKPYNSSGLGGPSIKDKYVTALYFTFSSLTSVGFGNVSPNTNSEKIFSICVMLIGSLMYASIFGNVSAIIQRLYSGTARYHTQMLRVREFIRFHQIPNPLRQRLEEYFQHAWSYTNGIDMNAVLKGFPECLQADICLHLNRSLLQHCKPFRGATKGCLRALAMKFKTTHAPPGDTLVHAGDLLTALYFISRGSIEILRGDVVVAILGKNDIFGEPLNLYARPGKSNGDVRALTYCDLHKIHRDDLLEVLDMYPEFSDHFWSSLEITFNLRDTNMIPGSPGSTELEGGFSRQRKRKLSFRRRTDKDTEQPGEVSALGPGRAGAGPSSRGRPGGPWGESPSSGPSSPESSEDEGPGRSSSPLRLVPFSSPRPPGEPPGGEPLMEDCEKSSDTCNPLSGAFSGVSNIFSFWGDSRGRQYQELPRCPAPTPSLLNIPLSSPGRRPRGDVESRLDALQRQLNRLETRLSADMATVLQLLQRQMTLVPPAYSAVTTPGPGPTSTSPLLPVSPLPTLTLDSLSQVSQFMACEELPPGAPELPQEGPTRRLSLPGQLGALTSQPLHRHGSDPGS
- Protocol: hERG potassium channel inhibition activity test (Qpatch, CHO-hERG cells)
- Run parameters: CHO-hERG cells, highest test concentration 40 uM; read-out: hERG (inhibition effect on hERG current)
Property: IC50

INSERT INTO measurements (molecular_string, endpoint_value) VALUES
  ('C[C@@H](NC(=O)c1nc2cc3c(-c4ccncc4)n[nH]c3cc2[nH]1)c1ccccc1', '> 40 µM'),
  ('O=C(Cc1ccccc1)c1nc2cc3c(-c4ccncc4)n[nH]c3cc2[nH]1', '> 40 µM');

###

Measured IC50 values are reported for all entries that follow.
- System under test: ERK-2 kinase (Homo sapiens)
- Construct: purchased Invitrogen PV3313
- Sequence (P28482 whole entry): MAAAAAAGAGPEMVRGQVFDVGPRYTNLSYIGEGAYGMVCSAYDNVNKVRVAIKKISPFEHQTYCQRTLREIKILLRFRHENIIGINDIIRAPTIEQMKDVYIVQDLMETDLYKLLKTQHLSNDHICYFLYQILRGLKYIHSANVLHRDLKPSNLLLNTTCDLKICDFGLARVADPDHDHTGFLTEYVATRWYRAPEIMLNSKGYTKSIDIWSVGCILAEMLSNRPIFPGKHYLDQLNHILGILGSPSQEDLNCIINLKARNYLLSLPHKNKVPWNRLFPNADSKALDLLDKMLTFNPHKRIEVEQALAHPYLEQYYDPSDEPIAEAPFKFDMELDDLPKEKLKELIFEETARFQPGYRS
- Protocol: Inhibition of ERK-2 kinase activity (LANCE Ultra TR-FRET)
- Format: biochemical
- Run parameters: ERK-2 enzyme 0.08 nM, ATP 38.15 μM
Property: IC50

INSERT INTO results (molecular_string, system_under_test, endpoint_value) VALUES
  ('C[C@@H](NC(=O)c1nc2cc3c(C4=CCC(=O)CC4)n[nH]c3cc2[nH]1)c1ccccc1', 'ERK-2 kinase (Homo sapiens)', '5.85 nM'),
  ('Cc1cccc([C@@H](C)NC(=O)c2nc3cc4c(-c5ccncc5)n[nH]c4cc3[nH]2)n1', 'ERK-2 kinase (Homo sapiens)', '0.17 nM'),
  ('Cc1cccc([C@@H](C)NC(=O)c2nc3cc4c(-c5ccncc5)n[nH]c4cc3[nH]2)c1', 'ERK-2 kinase (Homo sapiens)', '0.17 nM'),
  ('COc1cccc([C@@H](C)NC(=O)c2nc3cc4c(-c5ccncc5)n[nH]c4cc3[nH]2)c1', 'ERK-2 kinase (Homo sapiens)', '0.2 nM'),
  ('C[C@@H](NC(=O)c1nc2cc3c(-c4ccncc4)n[nH]c3cc2[nH]1)c1cccc(C2CC2)c1', 'ERK-2 kinase (Homo sapiens)', '0.99 nM'),
  ('CC(C)c1cccc([C@@H](C)NC(=O)c2nc3cc4c(-c5ccncc5)n[nH]c4cc3[nH]2)c1', 'ERK-2 kinase (Homo sapiens)', '1.02 nM'),
  ('O=C(N[C@H](CO)c1ccccc1)c1nc2cc3c(-c4ccncc4)n[nH]c3cc2[nH]1', 'ERK-2 kinase (Homo sapiens)', '0.06 nM');

###

- Protocol: Pharmacokinetics assay in mice (oral, plasma)
- Type: in vivo, Balb/c Mouse
- Run parameters: mouse; male Balb/c mice, PO 50 mg/kg, plasma
Measured MRT values are reported for all entries that follow.
Property: MRT (h)

INSERT INTO results (molecular_string, property, endpoint_value) VALUES
  ('C[C@@H](NC(=O)c1cc2cc3c(-c4ccncc4)n[nH]c3cc2[nH]1)c1ccccc1', 'MRT', 8.99),
  ('C[C@@H](NC(=O)c1nc2cc3c(-c4ccncc4)n[nH]c3cc2[nH]1)c1ccc(F)cc1', 'MRT', 2.33),
  ('C[C@@H](NC(=O)c1nc2cc3c(-c4ccncc4)n[nH]c3cc2[nH]1)c1ccccc1', 'MRT', 2.44);

###

Measured Cmax values are reported for all entries that follow.
- Protocol: Pharmacokinetics assay in mice (oral, plasma)
- Type: in vivo, Balb/c Mouse
- Run parameters: mouse; male Balb/c mice, PO 50 mg/kg, plasma
Property: Cmax (ng/mL)

INSERT INTO results (molecular_string, property, endpoint_value) VALUES
  ('C[C@@H](NC(=O)c1nc2cc3c(-c4ccncc4)n[nH]c3cc2[nH]1)c1ccc(F)cc1', 'Cmax', 8260),
  ('C[C@@H](NC(=O)c1cc2cc3c(-c4ccncc4)n[nH]c3cc2[nH]1)c1ccccc1', 'Cmax', 1310),
  ('C[C@@H](NC(=O)c1nc2cc3c(-c4ccncc4)n[nH]c3cc2[nH]1)c1ccccc1', 'Cmax', 15900);

###

Measured pIC50 values are reported for all entries that follow.
- System under test: UniProtKB P27361
pIC50: −log10 of the molar value.
Property: pIC50

INSERT INTO measurements (molecular_string, property, endpoint_value) VALUES
  ('C[C@@H](NC(=O)c1cc2cc3c(-c4ccncc4)n[nH]c3cc2[nH]1)c1ccccc1', 'pIC50', 9.54),
  ('O=C(N[C@H](CO)c1ccccc1)c1nc2cc3c(-c4ccncc4)n[nH]c3cc2[nH]1', 'pIC50', 9.66),
  ('Cc1cccc([C@@H](CO)NC(=O)c2nc3cc4c(-c5ccncc5)n[nH]c4cc3[nH]2)c1', 'pIC50', 9.72);

###

- System under test: ERK-2 kinase (Homo sapiens)
pIC50: −log10 of the molar value.
Measured pIC50 values are reported for all entries that follow.
Property: pIC50

INSERT INTO assay_data (compound, property, endpoint_value) VALUES
  ('C[C@@H](NC(=O)c1nc2cc3c(-c4ccncc4)n[nH]c3cc2[nH]1)c1cccc(F)c1', 'pIC50', 9.30),
  ('C[C@@H](CNC(=O)c1nc2cc3c(-c4ccncc4)n[nH]c3cc2[nH]1)c1ccccc1', 'pIC50', 9.08),
  ('O=C(NCc1ccccc1)c1nc2cc3c(-c4ccncc4)n[nH]c3cc2[nH]1', 'pIC50', 8.97),
  ('COc1ccc(-c2n[nH]c3cc4[nH]c(C(=O)N[C@H](C)c5ccccc5)nc4cc23)cn1', 'pIC50', 9.03),
  ('C[C@@H](NC(=O)c1nc2cc3c(-c4ccncc4)n[nH]c3cc2[nH]1)c1ccc(F)cc1', 'pIC50', 9.74),
  ('Cc1cccc(C(C)NC(=O)c2nc3cc4c(-c5ccncc5)n[nH]c4cc3[nH]2)n1 (centres unmarked)', 'pIC50', 9.18),
  ('C[C@@H](NC(=O)c1nc2cc3c(-c4ccncc4)n[nH]c3cc2[nH]1)c1ccc(F)c(Cl)c1', 'pIC50', 8.54),
  ('C[C@@H](NC(=O)c1nc2cc3c(-c4ccncn4)n[nH]c3cc2[nH]1)c1ccccc1', 'pIC50', 8.84);

###

- Protocol: Pharmacokinetics assay in mice (oral, plasma)
- Assay type: in vivo, Balb/c Mouse
- Run parameters: mouse; male Balb/c mice, PO 50 mg/kg, plasma
Property: Tmax (h)

INSERT INTO results (molecule, endpoint_value) VALUES
  ('C[C@@H](NC(=O)c1nc2cc3c(-c4ccncc4)n[nH]c3cc2[nH]1)c1ccc(F)cc1 [Example 7]', 1),
  ('C[C@@H](NC(=O)c1cc2cc3c(-c4ccncc4)n[nH]c3cc2[nH]1)c1ccccc1 [Example 1]', 0.5),
  ('C[C@@H](NC(=O)c1nc2cc3c(-c4ccncc4)n[nH]c3cc2[nH]1)c1ccccc1 [Example 2]', 2);

###

- System under test: ERK-1 kinase (Homo sapiens, UniProt P27361)
- Sequence (P27361 whole entry): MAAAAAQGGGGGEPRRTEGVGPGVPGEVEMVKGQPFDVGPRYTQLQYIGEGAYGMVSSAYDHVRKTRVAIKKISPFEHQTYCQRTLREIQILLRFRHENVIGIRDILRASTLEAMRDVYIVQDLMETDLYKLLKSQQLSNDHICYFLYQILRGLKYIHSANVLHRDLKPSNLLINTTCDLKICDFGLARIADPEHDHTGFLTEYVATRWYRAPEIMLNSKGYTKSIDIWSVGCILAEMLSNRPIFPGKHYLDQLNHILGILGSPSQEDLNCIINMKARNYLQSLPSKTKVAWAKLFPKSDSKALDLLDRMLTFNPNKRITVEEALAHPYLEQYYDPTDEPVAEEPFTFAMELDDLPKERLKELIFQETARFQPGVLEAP
Rule for this label: Met means IC50 is less than 2 nM; Not met means IC50 is at least 2 nM.

INSERT INTO results (molecular_string, category) VALUES
  ('C[C@@H](NC(=O)c1nc2cc3c(C4=CCC(=O)CC4)n[nH]c3cc2[nH]1)c1ccccc1', 'Not met'),
  ('C[C@@H](NC(=O)c1nc2cc3c(-c4ccncn4)n[nH]c3cc2[nH]1)c1ccccc1', 'Not met'),
  ('C[C@@H](NC(=O)c1nc2cc3c(-c4cc[n+]([O-])cc4)n[nH]c3cc2[nH]1)c1ccccc1', 'Met'),
  ('C[C@@H](NC(=O)c1nc2cc3c(-c4ccncc4)n[nH]c3cc2[nH]1)c1cccc(F)c1', 'Met'),
  ('CC(C)c1cccc([C@@H](C)NC(=O)c2nc3cc4c(-c5ccncc5)n[nH]c4cc3[nH]2)c1', 'Not met'),
  ('CN(NC(=O)c1nc2cc3c(-c4ccncc4)n[nH]c3cc2[nH]1)c1ccccc1', 'Not met'),
  ('O=C(N[C@H](CNCC(F)F)c1ccccc1)c1nc2cc3c(-c4ccncc4)n[nH]c3cc2[nH]1', 'Met'),
  ('C[C@@H](CNC(=O)c1nc2cc3c(-c4ccncc4)n[nH]c3cc2[nH]1)c1ccccc1', 'Met');

###

- System under test: ERK-1 kinase (Homo sapiens, UniProt P27361)
- Construct: purchased Invitrogen PV3311
- Protocol: Inhibition of ERK-1 kinase activity (LANCE Ultra TR-FRET)
- Assay type: biochemical
- Run parameters: ERK1 enzyme 0.4 nM, ATP 38.15 μM
Property: IC50 (nM)

INSERT INTO measurements (compound, system_under_test, property, endpoint_value) VALUES
  ('Cc1cccc([C@@H](C)NC(=O)c2nc3cc4c(-c5ccncc5)n[nH]c4cc3[nH]2)n1 [Example 47]', 'ERK-1 kinase (Homo sapiens, UniProt P27361)', 'IC50', 0.49),
  ('C[C@@H](NC(=O)c1nc2cc3c(-c4ccncc4)n[nH]c3cc2[nH]1)c1cccc(C2CC2)c1 [Example 88]', 'ERK-1 kinase (Homo sapiens, UniProt P27361)', 'IC50', 2.27),
  ('C[C@@H](NC(=O)c1nc2cc3c(-c4ccncc4)n[nH]c3cc2[nH]1)c1cccc(Cl)c1 [Example 22]', 'ERK-1 kinase (Homo sapiens, UniProt P27361)', 'IC50', 0.26),
  ('C[C@@H](NC(=O)c1nc2cc3c(-c4ccncc4)n[nH]c3cc2[nH]1)c1ccc(F)c(Cl)c1 [Example 63]', 'ERK-1 kinase (Homo sapiens, UniProt P27361)', 'IC50', 2.93),
  ('C[C@@H](NC(=O)c1nc2cc3c(-c4ccnc(F)c4)n[nH]c3cc2[nH]1)c1ccccc1 [Example 37]', 'ERK-1 kinase (Homo sapiens, UniProt P27361)', 'IC50', 0.52),
  ('Cc1cccc(C(C)NC(=O)c2nc3cc4c(-c5ccncc5)n[nH]c4cc3[nH]2)n1 (centres unmarked) [Example 44]', 'ERK-1 kinase (Homo sapiens, UniProt P27361)', 'IC50', 0.95),
  ('O=C(N[C@H](CNC1CC1)c1ccccc1)c1nc2cc3c(-c4ccncc4)n[nH]c3cc2[nH]1 [Example 54]', 'ERK-1 kinase (Homo sapiens, UniProt P27361)', 'IC50', 0.52),
  ('CC(NC(=O)c1nc2cc3c(-c4ccncc4)n[nH]c3cc2[nH]1)c1ccccc1 (centres unmarked) [Example 11]', 'ERK-1 kinase (Homo sapiens, UniProt P27361)', 'IC50', 0.64);
